System: MDA-MB-435 melanoma
Experiment: NCI-60 one-dose screen, 48 h (100 = growth as untreated, 0 = no growth, -100 = all killed)
Conditions: 10 µM
About 83,000 compounds went through this panel and 20% of them were active in at least one assay; those are over-represented in the sample as a whole.
Give measured growth for each item. Keep answers brief.
Numbers only, in %.

The cases that follow already have their growth on record.
Cc1nc2c(ccc3ccccc32)s1 ... 115
CC1(C)Nc2cccc3c(N=Nc4ccc(N=Nc5ccccc5)c5ccccc45)ccc(c23)N1 ... 109
O=C(O)COCC(=O)O ... 109

Okay, here is my list. What is growth for each of these?
1. CCOc1ccc(/C=N/N=C(N)N)cc1OCC
2. COC(=O)Nc1cccc(Cl)c1OC
3. CC(=O)Cc1cc(-c2cc(CC(C)=O)[nH]n2)n[nH]1
4. CCCCCCCCO
5. COc1cc(CCN=Cc2ccccc2O)c([N+](=O)[O-])cc1OC
6. O=[N+]([O-])c1ccc(-c2ncc(-c3ccc(Br)cc3)o2)cc1
7. N#CCCc1ccc(O)cc1

Outgoing:
[99, 101, 103, 99.3, 110, 108, 99.8]

Okay, here is my list. What is growth for each of these?
1. CC1(c2ccccc2)NC(=O)NC1=O (configuration not stated)
2. CC1SC(N)=NC1=O (configuration not stated)

Outgoing:
1. 113
2. 109

* * *

Give measured growth for each item. Keep answers brief.
Test system: HOP-62 NSCLC
Assay: NCI-60 one-dose screen, 48 h (100 = growth as untreated, 0 = no growth, -100 = all killed)
Conditions: 10 µM
This is part of a sample that, as a whole, favours compounds with a hit. Of some 83,000 tested, about 20% had one in any assay.
One number for each entry, in %.

The cases that follow already have their growth on record.
CCOC(=O)c1cc(/C=C/c2cccc(Cl)c2)on1 ... 99.9
N#CC(=Nc1cccc(F)c1)C1=C(O)c2ccccc2C1=O ... 88.4
CCCOC(=O)C(O)c1ccccc1 (centres undefined) ... 99.8

Okay, here is my list. What is growth for each of these?
1. CCCCC/C=N/Nc1nc(C)cc(=O)[nH]1
2. CCOC(=O)C1=C(C)NC(=O)NC1c1cccs1 (centres undefined)
3. O=C(O)CSCSCC(=O)O
4. CCC/C=C(/C(C)=O)C(=O)OCC
5. OCC(O)C(O)C(O)C(O)/C=N/O (centres undefined)

Outgoing:
117
109
91.5
108
83.5

Okay, here is my list. What is growth for each of these?
1. CC(C)=C(NC(=O)c1ccccc1)C(=O)O
2. COCCOC(=O)c1ccc(C(C)C)cc1

Outgoing:
[115, 80.3]

* * *

Tested on: SNB-19 CNS
Experiment: NCI-60 one-dose screen, 48 h (100 = growth as untreated, 0 = no growth, -100 = all killed)
Conditions: 10 µM
Compounds without any hit were thinned out: in the full panel of roughly 83,000, 20% have a hit.
Give measured growth for each item. Keep answers brief.
One number for each entry, in %.

The cases that follow already have their growth on record.
CC(=Nc1ccccc1)C1=C(O)C(Cc2cccc(F)c2)NC1=O (stereo not drawn) ... 36.2
O=[N+]([O-])c1ccc(Sc2ccncn2)c([N+](=O)[O-])c1 ... 106
COc1cc2nc3cc([N+](=O)[O-])ccc3c(Cl)c2cc1OC ... 106
CCC(O)CC(CC)CO (stereo not drawn) ... 114
CCC(C#N)(CC)c1ccccc1 ... 99.5

Okay, here is my list. What is growth for each of these?
1. Nc1nc(N)c(N=Nc2ccc(C(=O)O)cc2)c(N)n1
2. C[C@@H](c1ccccc1)[C@@H](C(=O)O)c1ccccc1
3. CCN(CC)CCCC(C)Nc1ccnc(/C=C/c2ccc(Cl)cc2)c1 (stereo not drawn)
4. Oc1ccccc1-c1nnco1
5. FC(F)(F)c1ccc2c(c1)N(CCCN1CCN(C3CC3)CC1)c1ccccc1S2

Outgoing:
[95.1, 92.4, 53.6, 93.2, 43]

Okay, here is my list. What is growth for each of these?
1. CC1NC(=O)NC1CCCCCC(=O)O (stereo not drawn)
2. CN(C)c1ccc(CNC(C(=O)c2ccccc2)c2ccccc2)cc1 (stereo not drawn)
3. CC1CC(O)CC(C)(C)C1 (stereo not drawn)

Outgoing:
[99.8, 107, 104]
